Reference source: patent US20250346592A1

- study.system: hPAD4 enzyme (Homo sapiens (Human))
- Sequence (Q9UM07 whole entry): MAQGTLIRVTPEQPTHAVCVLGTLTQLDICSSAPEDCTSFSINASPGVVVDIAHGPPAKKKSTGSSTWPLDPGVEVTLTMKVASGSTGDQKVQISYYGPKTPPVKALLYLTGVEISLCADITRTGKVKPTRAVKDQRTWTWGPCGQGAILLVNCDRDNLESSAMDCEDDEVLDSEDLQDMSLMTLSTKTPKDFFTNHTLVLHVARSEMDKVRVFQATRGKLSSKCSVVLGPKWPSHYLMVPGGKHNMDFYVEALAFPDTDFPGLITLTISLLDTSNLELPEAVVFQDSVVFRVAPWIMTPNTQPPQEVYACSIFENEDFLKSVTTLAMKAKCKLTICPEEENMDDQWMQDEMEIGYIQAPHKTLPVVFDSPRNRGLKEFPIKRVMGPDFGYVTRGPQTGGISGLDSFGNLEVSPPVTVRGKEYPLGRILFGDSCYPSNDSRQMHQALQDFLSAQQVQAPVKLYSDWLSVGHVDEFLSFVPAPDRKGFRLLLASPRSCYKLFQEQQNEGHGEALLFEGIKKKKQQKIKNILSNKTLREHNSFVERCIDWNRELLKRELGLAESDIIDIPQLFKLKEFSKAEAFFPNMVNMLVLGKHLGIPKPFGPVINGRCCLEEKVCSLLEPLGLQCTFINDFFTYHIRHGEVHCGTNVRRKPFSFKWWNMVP
- test.protocol: RFMS2 assay (RapidFire mass spectrometry, TSTGGRQGSHH peptide substrate)
- Format: biochemical
- condition: 35 nM recombinant human PAD4, 500 μM TSTGGRQGSHH peptide, 30 minutes at room temperature; read-out: RFMS 2 IC50
pIC50: −log10 of the molar value.
value.type: pIC50

molecule: Cn1c(-c2cc3cccc(OCc4ccon4)c3n2CC2CC2)nc2cc3c(cc21)CCN(C[C@H](N)CF)C3=O [Example 167]
endpoint.value: 6.30 to 7.00
//
molecule: Cn1c(-c2cc3cccc(OCCn4cncn4)c3n2CC2CC2)nc2cc3c(cc21)CCN(C[C@H](N)CF)C3=O [Example 150]
endpoint.value: 6.30 to 7.00
//
molecule: C[C@@H](N)CN1CCc2cc3c(cc2C1=O)nc(-c1cc2ccnc(Cl)c2n1CC1CC1)n3C [Example 22]
endpoint.value: < 6.00
//
molecule: Cn1c(-c2cc3cccc(OCc4ccn[nH]4)c3n2CC2CC2)nc2cc3c(cc21)CCN(C[C@H](N)CF)C3=O [Example 174]
endpoint.value: 7.00 to 7.96
//
molecule: C[C@@H](N)CN1CCc2cc3c(cc2C1=O)nc(-c1cc2ccc(C4COC4)cc2n1CC1CC1)n3C [Example 42]
endpoint.value: 6.00 to 6.30

Inquiry: Looking for the measured pIC50 of Cn1c(-c2cc3ccccc3n2Cc2ccno2)nc2cc3c(cc21)CCN(C[C@H](N)CF)C3=O [Example 93] , can you help?
Reply text: 6.30 to 7.00

Inquiry: Looking for the measured pIC50 of CC(C)c1cccc2cc(-c3nc4cc5c(cc4n3C)CCN(C[C@@H](C)N)C5=O)n(CC3CC3)c12 [Example 19] , can you help?
Reply text: 6.30 to 7.00

----------
- study.system: hPAD4 enzyme (Homo sapiens (Human))
- test.protocol: RFMS2 assay (RapidFire mass spectrometry, TSTGGRQGSHH peptide substrate)
- Format: biochemical
- condition: 35 nM recombinant human PAD4, 500 μM TSTGGRQGSHH peptide, 30 minutes at room temperature; read-out: RFMS 2 IC50
- Method: Stock compounds were dissolved and stored in 100% DMSO. Compound solutions were prepared via serial dilution at 3-fold intervals in DMSO with top compound concentration at 20 μM in each assay. 0.25 μl of compound solution was transferred from the compound plate to the assay plate by using an acoustic dispenser. […] MRM transitions for substrate and product were monitored in positive ESI mode at m/z=562.3/969.7 and m/z=562.8/541.3 respectively. […]
Listed below: IC50 values for each entry.

Take a look at these entries with their results.
molecule: Cn1c(-c2cc3ccncc3n2CC2CC2)nc2cc3c(cc21)CCN(C[C@H](N)CF)C3=O [Example 52]
endpoint.value: > 1000 nM

molecule: C[C@@H](N)CN1CCc2cc3c(cc2C1=O)nc(-c1cc2ccccc2n1Cc1ccncc1)n3C [Example 81]
endpoint.value: > 1000 nM

molecule: Cn1c(-c2cc3ccccc3n2CC2CC2)nc2cc3c(cc21)CCN(C[C@H]1COCCN1)C3=O [Example 13]
endpoint.value: 501 to 1000 nM

molecule: COc1ccc2cc(-c3nc4cc5c(c(F)c4n3C)CCN(C[C@H](N)CF)C5=O)n(CC3CC3)c2c1 [Example 239]
endpoint.value: 501 to 1000 nM

molecule: Cn1c(-c2cc3cccc(OCCc4cnoc4)c3n2CC2CC2)nc2cc3c(cc21)CCN(C[C@H](N)CF)C3=O [Example 204]
endpoint.value: 11 to 100 nM

Inquiry: Looking for the measured IC50 of COC(=O)NC[C@H](C)Oc1cccc2cc(-c3nc4cc5c(cc4n3C)CCN(C[C@H](N)CF)C5=O)n(CC3CC3)c12 [Example 202] , can you help?
Reply text: 101 to 500 nM

Inquiry: Looking for the measured IC50 of Cc1cc(C(N)=O)c(F)cc1-c1ccc2cc(-c3nc4cc5c(cc4n3C)CCN(C[C@H](N)CF)C5=O)n(CC3CC3)c2n1 [Example 60] , can you help?
Reply text: 101 to 500 nM

Inquiry: Looking for the measured IC50 of COc1ccc2cc(-c3nc4cc5c(cc4n3C)CCN(C[C@H](N)CF)C5=O)n(Cc3ccno3)c2c1 [Example 112] , can you help?
Reply text: 101 to 500 nM

Inquiry: Looking for the measured IC50 of Cn1c(-c2cc3cccc(OCCC4CNC(=O)C4)c3n2CC2CC2)nc2cc3c(cc21)CCN(C[C@H](N)CF)C3=O (single isomer, unassigned) [Example 178] , can you help?
Reply text: 101 to 500 nM

Inquiry: Looking for the measured IC50 of Cn1c(-c2cc3ccccc3n2CC2CC2)nc2cc3c(cc21)CCN(C[C@H](N)C(F)F)C3=O [Example 14] , can you help?
Reply text: > 1000 nM

Inquiry: Looking for the measured IC50 of COCCn1c(-c2nc3cc4c(cc3n2C)CCN(C[C@H](N)CF)C4=O)cc2ccc(OC)cc21 [Example 103] , can you help?
Reply text: 501 to 1000 nM

Inquiry: Looking for the measured IC50 of Cn1c(-c2cc3cccc(OCCn4cccn4)c3n2CC2CC2)nc2cc3c(cc21)CCN(C[C@H](N)CF)C3=O [Example 155] , can you help?
Reply text: 11 to 100 nM

Inquiry: Looking for the measured IC50 of C[C@@H](N)CN1CCc2cc3c(cc2C1=O)nc(-c1cc2cc(Cl)ccc2n1CC1CC1)n3C [Example 34] , can you help?
Reply text: 501 to 1000 nM

Inquiry: Looking for the measured IC50 of COc1cccc2cc(-c3nc4cc5c(cc4n3C)CCN(C[C@H](N)CF)C5=O)n(Cc3cc(Cl)no3)c12 [Example 136] , can you help?
Reply text: 101 to 500 nM
